- TARGET_OR_SYSTEM: hGLP-1R (Homo sapiens)
- TEST_NAME: Functional cAMP activity in the presence of 1% HSA
- Format: cell-based
- CONDITION_DETAILS: read-out: cAMP Rel EC50, hGLP-1R
Starred links: 1 amine or outer side, 2 acyl side, 3 side chain; linkers in the order of their positions; H or OH if unused. Non-standard residues stand in square brackets, D forms with d. Groups on a side chain read outwards from the residue. No end group written: not given here. *: point of attachment. C18 diacid = O=C(O)CCCCCCCCCCCCCCCCC(=O)*; αMePhe(2-F) = C[C@](N)(Cc1ccccc1F)C(=O)O; γGlu = O=C(O)[C@H](CCC(=O)[*:2])N[*:1]; αMe4Pal = C[C@](N)(Cc1ccncc1)C(=O)O; αMeY = C[C@](N)(Cc1ccc(O)cc1)C(=O)O; 4Pal = N[C@@H](Cc1ccncc1)C(=O)O; αMeL = CC(C)C[C@](C)(N)C(=O)O; αMeS = C[C@](N)(CO)C(=O)O; Orn = NCCC[C@H](N)C(=O)O; AEEA = NCCOCCOCC(=O)O; Aib = CC(C)(N)C(=O)O
MEASUREMENT_NAME: log10 EC50 (log10 of the value in nM)
Parameter value (number): base-10 log of EC50 in nM.

>  <SUBSTANCE>
H-Y[Aib]QGT[αMePhe(2-F)]TSD[4Pal][αMeS]I[αMeL]LD[Orn]K([AEEA-γGlu-C18 diacid])AQ[αMe4Pal]EFI[dE][αMeY]LIEGGPSSGAPPPSGGGEE-NH2 [Example 1214]

>  <MEASUREMENT_NAME>
log10 EC50

>  <OBSERVED>
1.70

$$$$
>  <SUBSTANCE>
H-Y[Aib]QGT[αMePhe(2-F)]TSD[4Pal][αMeS]I[αMeL]LD[Orn]K([AEEA-γGlu-C18 diacid])AQ[αMe4Pal]EFI[dE][αMeY]LIEGGPPSGEPPPEGE-NH2 [Example 1191]

>  <MEASUREMENT_NAME>
log10 EC50

>  <OBSERVED>
1.92

$$$$
>  <SUBSTANCE>
Y[Aib]QGT[αMePhe(2-F)]TSD[4Pal]SI[αMeL]LD[Orn]K([AEEA-γGlu-C18 diacid])AQ[αMe4Pal]EFI[dE][αMeY]LIEGGPSSGEPPPSGS-NH2 [Example 644]

>  <MEASUREMENT_NAME>
log10 EC50

>  <OBSERVED>
1.54

$$$$
>  <SUBSTANCE>
H-Y[Aib]QGTFTSD[4Pal]SQ[αMeL]LD[Orn]K([γGlu-γGlu-C18 diacid])AQ[αMe4Pal]AFIEYLIA[Aib]GPSSGAPPPSGSEE-NH2 [Example 1091]

>  <MEASUREMENT_NAME>
log10 EC50

>  <OBSERVED>
2.16

$$$$

Please give the measured log10 EC50 for this substance: Y[Aib]QGT[αMePhe(2-F)]TSD[4Pal][αMeS]I[αMeL]LD[Orn]K([AEEA-γGlu-C18 diacid])AQ[Aib][Orn]FI[dE][αMeY]LIEGGPSSGAPEPSEG-NH2 [Example 429]
1.08

====

- TARGET_OR_SYSTEM: human GLP1-R (Homo sapiens, UniProt P43220)
- Sequence (P43220 24-463): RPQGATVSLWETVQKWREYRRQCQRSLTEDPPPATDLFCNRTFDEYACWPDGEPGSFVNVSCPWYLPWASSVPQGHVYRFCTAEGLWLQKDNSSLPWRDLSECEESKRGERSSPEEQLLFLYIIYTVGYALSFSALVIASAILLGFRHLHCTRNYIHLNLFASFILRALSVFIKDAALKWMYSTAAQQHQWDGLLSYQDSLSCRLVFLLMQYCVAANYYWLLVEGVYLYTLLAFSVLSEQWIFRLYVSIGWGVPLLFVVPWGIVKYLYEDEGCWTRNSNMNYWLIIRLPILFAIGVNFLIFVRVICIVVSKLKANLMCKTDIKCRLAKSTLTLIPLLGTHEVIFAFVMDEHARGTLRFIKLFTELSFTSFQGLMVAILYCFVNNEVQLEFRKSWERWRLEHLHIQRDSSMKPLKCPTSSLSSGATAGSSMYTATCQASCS
- TEST_NAME: GLP1-R internalization assay in HEK293 cells
- Format: cell-based
- CONDITION_DETAILS: HEK293 cells expressing SNAP-GLP-1R; read-out: GLP1R Internalization EC50
Starred links: 1 amine or outer side, 2 acyl side, 3 side chain; linkers in the order of their positions; H or OH if unused. Non-standard residues stand in square brackets, D forms with d. Groups on a side chain read outwards from the residue. *: point of attachment. C20 diacid = O=C(O)CCCCCCCCCCCCCCCCCCC(=O)*; C18 diacid = O=C(O)CCCCCCCCCCCCCCCCC(=O)*; γGlu = O=C(O)[C@H](CCC(=O)[*:2])N[*:1]; αMe4Pal = C[C@](N)(Cc1ccncc1)C(=O)O; 4Pal = N[C@@H](Cc1ccncc1)C(=O)O; αMeL = CC(C)C[C@](C)(N)C(=O)O; Orn = NCCC[C@H](N)C(=O)O; AEEA = NCCOCCOCC(=O)O; Aib = CC(C)(N)C(=O)O
MEASUREMENT_NAME: EC50 (nM)
Number in nM, nothing else.

Answered cases to consult:
>  <SUBSTANCE>
H-Y[Aib]QGTFTSDFS[Orn][αMeL]LDKK([AEEA-γGlu-C18 diacid])AQ[Aib]AFIEWLLEGGTSSGAPPPSGE-NH2 [Example 175]

>  <MEASUREMENT_NAME>
EC50

>  <READING_UNIT>
nM

>  <OBSERVED>
116

$$$$
>  <SUBSTANCE>
H-Y[Aib]QGTFTSDFS[Orn][αMeL]LDKK([AEEA-γGlu-C18 diacid])AQ[Aib]AFIEWLLEGGPSSGAPPPTGS-NH2 [Example 250]

>  <MEASUREMENT_NAME>
EC50

>  <READING_UNIT>
nM

>  <OBSERVED>
97

$$$$
>  <SUBSTANCE>
H-Y[Aib]QGTFTSDFSK[αMeL]LDKK([AEEA-γGlu-C18 diacid])AQ[Aib]AFIEYLIEGGPSSGAPPPSEG-NH2 [Example 49]

>  <MEASUREMENT_NAME>
EC50

>  <READING_UNIT>
nM

>  <OBSERVED>
37.2

$$$$
>  <SUBSTANCE>
H-Y[Aib]QGTFTSD[4Pal]SQ[αMeL]LDKK([AEEA-γGlu-C18 diacid])AQ[αMe4Pal]AFIEYLIE[Aib]GESSGAPPPSGS-NH2 [Example 226]

>  <MEASUREMENT_NAME>
EC50

>  <READING_UNIT>
nM

>  <OBSERVED>
29.1

$$$$
>  <SUBSTANCE>
H-Y[Aib]QGTFTSDFSK[αMeL]LDKK([AEEA-γGlu-C20 diacid])AQ[Aib]AFIEYLLE[Aib]GPSSGAPPPSGS-NH2 [Example 45]

>  <MEASUREMENT_NAME>
EC50

>  <READING_UNIT>
nM

>  <OBSERVED>
52.6

$$$$

Lab note: next substance to report on.
What EC50 value was documented for this substance, H-Y[Aib]QGTFTSD[4Pal]S[Orn][αMeL]LDKK([AEEA-γGlu-C18 diacid])AQ[Aib]AFIEWLLEGGPSSGEPPPSGE-NH2 [Example 115] ?
255

====

Quick reference for EC50 among some substances
- TARGET_OR_SYSTEM: hGLP-1R (Homo sapiens, UniProt P43220)
- TEST_NAME: Functional cAMP activation in the presence of 0.1% casein (no HSA);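 note: intracellular cAMP rise after 30 min at 37 °C read by HTRF, normalized between buffer only (0%) and maximal control ligand (100%), four-parameter variable-slope fit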
- Assay type: cell-based
- CONDITION_DETAILS: in the presence of 0.1% casein (no HSA); geometric mean; read-out: Relative cAMP EC50, hGLP-1R
Starred links: 1 amine or outer side, 2 acyl side, 3 side chain; linkers in the order of their positions; H or OH if unused. Non-standard residues stand in square brackets, D forms with d. Groups on a side chain read outwards from the residue. No end group written: not given here. *: point of attachment. C20 diacid = O=C(O)CCCCCCCCCCCCCCCCCCC(=O)*; C18 diacid = O=C(O)CCCCCCCCCCCCCCCCC(=O)*; Phe(4-CN) = N#Cc1ccc(C[C@H](N)C(=O)O)cc1; αMePhe(2-F) = C[C@](N)(Cc1ccccc1F)C(=O)O; γGlu = O=C(O)[C@H](CCC(=O)[*:2])N[*:1]; αMe4Pal = C[C@](N)(Cc1ccncc1)C(=O)O; αMeY = C[C@](N)(Cc1ccc(O)cc1)C(=O)O; αMeF = C[C@](N)(Cc1ccccc1)C(=O)O; 4Pal = N[C@@H](Cc1ccncc1)C(=O)O; αMeL = CC(C)C[C@](C)(N)C(=O)O; αMeS = C[C@](N)(CO)C(=O)O; Orn = NCCC[C@H](N)C(=O)O; AEEA = NCCOCCOCC(=O)O; Aib = CC(C)(N)C(=O)O
Hi! Could you send only the number? It should be in nM, unit omitted.

>  <SUBSTANCE>
H-Y[Aib]QGTFTSDFS[Orn][αMeL]LDKK([AEEA-γGlu-C18 diacid])AQ[Aib]AFIEYLLEGGESSGAPPPSGS-NH2 [Example 145]

>  <OBSERVED>
4.26

$$$$
>  <SUBSTANCE>
H-Y[Aib]QGTFTSD[4Pal]S[Orn][αMeL]LD[Orn]K([Glu-Glu-γGlu-C18 diacid])AQ[αMe4Pal]AFIEYLIAGGPSSGAPPPSGSEE-NH2 [Example 1062]

>  <OBSERVED>
7.75

$$$$
>  <SUBSTANCE>
H-Y[Aib]QGTFTSDFS[Orn][αMeL]LDKK([AEEA-γGlu-C20 diacid])AQ[Aib]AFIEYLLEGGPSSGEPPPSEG-NH2 [Example 59]

>  <OBSERVED>
4.8

$$$$
>  <SUBSTANCE>
Y[Aib]QGT[αMeF]TSD[4Pal][αMeS]I[αMeL]LD[Orn]K([γGlu-γGlu-C18 diacid])AQ[αMe4Pal]EFI[dE][αMeY]LIEGGPSSGAPPPSGGGE-NH2 [Example 1174]

>  <OBSERVED>
0.454

$$$$
>  <SUBSTANCE>
H-Y[Aib]QGTFTSDFS[Orn][αMeL]LDKK([AEEA-γGlu-C18 diacid])AQ[Aib]AFIEWLLEGGPSSGAPPPEG[4Pal]-NH2 [Example 262]

>  <OBSERVED>
4.39

$$$$
>  <SUBSTANCE>
H-Y[Aib]QGTFTSD[4Pal]SQ[αMeL]LDKK([γGlu-γGlu-C18 diacid])AQ[αMe4Pal]AFIEYLIAGGPSSGAPPPEGS-NH2 [Example 969]

>  <OBSERVED>
1.21

$$$$
>  <SUBSTANCE>
Y[Aib]QGTFTSD[4Pal]SQ[αMeL]LDKK([AEEA-γGlu-C18 diacid])AQ[αMe4Pal]AFIEYLIAGGPSSGEPPPSGS-NH2 [Example 828]

>  <OBSERVED>
1.17

$$$$
>  <SUBSTANCE>
H-Y[Aib]QGTFTSDFS[Orn][αMeL]LDKK([AEEA-γGlu-C18 diacid])AQ[Aib]AFIEYLLAGGPSSGEPPPSGE-NH2 [Example 97]

>  <OBSERVED>
3.23

$$$$
>  <SUBSTANCE>
H-Y[Aib]QGTFTSD[4Pal]SQ[αMeL]LDKK([γGlu-γGlu-C18 diacid])AQ[αMe4Pal]QFIE[αMeY]LIEGGPSSGAPPPSGS-NH2 [Example 934]

>  <OBSERVED>
0.649

$$$$
>  <SUBSTANCE>
H-Y[Aib]QGT[αMePhe(2-F)]TSD[4Pal][αMeS]I[αMeL]LD[Orn]K([AEEA-γGlu-C18 diacid])AQ[αMe4Pal]EFI[dE][αMeY]LVEGGPSSGEPPPGGE-NH2 [Example 1155]

>  <OBSERVED>
0.434

$$$$

Could you tell me which EC50 is on file for Y[Aib]QGT[αMePhe(2-F)]TSDYSILLDKQAAK([AEEA-γGlu-C20 diacid])EFIEYLIEGGPSSGAPPPSEG-NH2 [Example 340] ?
0.648

Also, H-Y[Aib]QGTFTSD[Phe(4-CN)]S[Orn][αMeL]LDKK([AEEA-AEEA-γGlu-C18 diacid])AQ[Aib]AFIEYLLE[Aib]GPSSGAPPPSGS-NH2 [Example 178] please.
4.01

Same question for Y[Aib]QGT[αMePhe(2-F)]TSD[4Pal][αMeS]I[αMeL]LD[Orn]K([AEEA-γGlu-C18 diacid])AQ[αMe4Pal]EFI[dE][αMeY]LIEGGPSSGEPPPSGE-NH2 [Example 1141] please.
0.412

Let us now turn to H-Y[Aib]QGTFTSD[4Pal]SK[αMeL]LDKK([AEEA-γGlu-C18 diacid])AQ[Aib]AFIEYLIE[Aib]GPSSGAPPPSGS-NH2 [Example 801]
0.938

Field entry: Y[Aib]QGTFTSD[4Pal]SQ[αMeL]LD[Orn]K([AEEA-γGlu-C18 diacid])AQ[αMe4Pal]QFIE[αMeY]LIE[Aib]GPSSGEPPPSGSEE-NH2 [Example 1098]
1.22

Okay, and H-Y[Aib]QGTFTSD[4Pal]SQ[αMeL]LD[Orn]K([dE-γGlu-C18 diacid])AQ[αMe4Pal]QFIE[αMeY]LLAGGPSSGAPPPSGSEEE-NH2 [Example 1084] ?
10.3

Param item: H-Y[Aib]QGTFTSD[4Pal]S[Orn][αMeL]LDKK([AEEA-γGlu-C18 diacid])AQ[Aib]AFIE[αMeY]LIEGGPSSGAPPPSGS-NH2 [Example 836]
0.794

Can you handle H-Y[Aib]QGT[αMeF]TSD[4Pal][αMeS]I[αMeL]LD[Orn]K([γGlu-γGlu-C18 diacid])AQ[αMe4Pal]EFI[dE][αMeY]LIEGGPSSGAPPPSGE-NH2 [Example 1170] next?
0.395
